Catalogue of inhibition values
# Experimental Target: UniProt:P08172
# Sequence (P08172 whole entry): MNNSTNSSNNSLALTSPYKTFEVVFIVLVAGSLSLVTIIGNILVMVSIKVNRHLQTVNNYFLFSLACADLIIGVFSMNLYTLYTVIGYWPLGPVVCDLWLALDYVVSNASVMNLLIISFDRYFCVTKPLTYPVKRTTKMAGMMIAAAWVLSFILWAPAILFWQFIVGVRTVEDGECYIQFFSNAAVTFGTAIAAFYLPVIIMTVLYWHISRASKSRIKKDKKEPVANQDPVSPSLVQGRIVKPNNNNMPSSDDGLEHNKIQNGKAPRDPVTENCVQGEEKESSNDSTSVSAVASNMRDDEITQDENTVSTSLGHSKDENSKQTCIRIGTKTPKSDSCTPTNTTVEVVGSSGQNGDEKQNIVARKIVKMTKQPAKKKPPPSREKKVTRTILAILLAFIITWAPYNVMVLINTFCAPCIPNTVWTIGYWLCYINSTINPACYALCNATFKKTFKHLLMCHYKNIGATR
# Condition Label: Compound concentration 10 µM
# Description: PDSP Primary Binding target: CHRM2 - Compounds are tested at 10 uM concentration, plate are incubated at room temperature in the dark for 90 minutes. Reaction are stopped by vacuum filtration onto 0.3% polyethyleneimine soaked filter mats using Filtermate harvester. Scintilation cocktail is then melted onto microwave-dried filters on a hot plate and the radio activity is counted in Microbia counter.
Value Type: inhibition (%)

Compound	Value Type	Quantitative Readout
COc1ccc(OC(F)(F)F)cc1CN[C@H]1CCCN[C@H]1c1ccccc1	inhibition	12.9
N#Cc1ccc(NC(=O)Nc2ccccc2Br)c2nn[nH]c12	inhibition	29.7
Cc1cc(C(=O)N2Cc3cnn(C)c3Nc3ccccc32)ccc1CNC(=O)N1CCC[C@H]1C(=S)N1CCCN(C)CC1	inhibition	68.4
CC1(C)SSC(C)(C)[C@@H](NC(=O)[C@@H](N)Cc2ccc(O)cc2)C(=O)NCC(=O)N[C@@H](Cc2ccccc2)C(=O)N[C@H]1C(=O)O	inhibition	-9.99
CC(C)(N)C(=O)N[C@H](COCc1ccccc1)C(=O)N1CCC2(CC1)CN(S(C)(=O)=O)c1ccccc12	inhibition	1.1
OC[C@H]1O[C@@H](n2cnc3c(NC4CCCC4)ncnc32)[C@H](O)[C@@H]1O	inhibition	7.74
COc1ccccc1N1CCN(CCCCNC(=O)c2ccc3ccccc3c2)CC1	inhibition	7.22
CCC[C@H](Oc1cc(C)c(-n2cc(C(F)(F)F)cn2)c(C)c1)c1ccc(C(=O)NCCC(=O)O)cc1	inhibition	-6.26
CC(C)NCC(O)COc1cccc2[nH]ccc12 (centres undefined)	inhibition	-9.11
